Listed next: entries and their corresponding apparent KD of MS2 coat protein.
Test system: MS2 coat protein
Assay: apparent KD of MS2 coat protein; higher = weaker reporter binding
Conditions: Eterna round: R107; input ligand: arginine 13.2 mM
Note to self: number, then unit, no commentary.

Some sequences with known apparent KD of MS2 coat protein results, for comparison:
Request: Fill in the blank: the reported apparent KD of MS2 coat protein of GGUGGCGGGACUGAUACCAGCCACCACCGAUAGACCACAUGAGGAUCACCCAUGUUGGGUGGCCCUUGGCAGCAGUCUUGCGGCU [#1 Same State - Theophylline B Attempt #14 (HarryS)] is ____.
Response: 46.8 nM

Request: Now try CUGGCAGGAUUCUCAGCUGUCAGGGCUGAUACCAGCCACGAAAGUGGCCCUUGGCAGCAGCAAACAUGAGGAUCACCCAUGUAAU [(T)''-(M)'-(T)'-(Theo)-(Ms2)_Design1] .
Response: 279 nM

Request: Now try ACAUGAGGAUCACCCAUGUUCCUCAUUGAUACCAGUGAAUUUAGACGCCCUUGGCAGCGAGUUUUUUUAGAAGAAGUUUUUUUUU [6.F] .
Response: 158 nM

New cases:
Request: Fill in the blank: the reported apparent KD of MS2 coat protein of ACCUCACUCUCUGAUACCAGCUAAUAACAUGAGGAUCACCCAUGUCAGACUUGUAUUGAUAGCCCUUGGCAGCAGAGGUAACUGC [Theo B Ex t2] is ____.
Response: 9.42 nM

Request: Now try UGGGUACAUGAGGAUCACCCAUGUACUGAAGGAGCGAGAAAUAACUCAGGUAGGUCGCAGACAUGAGGAUCACCCAUGUAAUAAA [Exclusion Arginine A GF 10] .
Response: 16 nM

Request: Now try CCUGGACAUGAGGAUCACCCAUGUGAGGAUACCAGAUAUCCUGAUAUCCCUUGGCAGCCUCAUUACUUCGCAUUACCGAAACUUC [theeternabot_sameState_MS2_Theo_A_35] .
Response: 31.1 nM

====

Test system: K4 kissing-loop RNA reporter;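 further: bound reporter read as fluorescence of individual clusters on recovered sequencing chips by microscopy, with normalized cluster intensities fitted with a binding model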
Experiment: apparent KD of K4 kissing-loop reporter; higher = weaker reporter binding
Settings: Eterna round: R107; input ligand: tryptophan 2.4 mM
Quantity measured: apparent KD of K4 kissing-loop reporter

Some sequences with known apparent KD of K4 kissing-loop reporter results, for comparison:
Request: Fill in the blank: the reported apparent KD of K4 kissing-loop reporter of AAAAUAAAUCAGUGAUGUUGGUAUCCGGAUACCAGCGAUAAUCAUCGCCCUUGGCAGCCGUGGACGUACAAAAUAAGUACGUCCU [MatMod 16 - Jieux - Same State - Theophylline A] is ____.
Response: 183 nM

Request: Now try UGUCAUGGAAACAUGAACGUUGAUGUUCGACGAGGACCGGUACGGCCGCCACUCGAGUAAUAGUCAGUGAUGUUGACUGGGCUAA [KL-SSTryp-A form1 sub2] .
Response: 140 nM

Request: Now try UCUAACAAAUCGGCCGCCACUGAAAUAACCCAGGAGUGAUGUUCCAUCGUCCUAGACUACUCUUCCAGGACCGGGAUCUGUGUUC [theeternabot_exclusion_KL_Trp_B_25] .
Response: 284 nM

New cases:
Request: Fill in the blank: the reported apparent KD of K4 kissing-loop reporter of AGAUUCGACACGGCCGCCACUUCCAGUGGCUGGUGUCAUGGUGCACGUGAGUGAUGUUUAUGUGGAAGGACCGGGUGUUGAGUCU [KL-XTryp-B2 #analogue] is ____.
Response: 1250 nM

Request: Now try AGUGCACUGUCAGGAUAUGUACAGUGAUGUUGUGUAUGUCAGCAAGUCAAAGACUUGCUCUUCUGUGCAGAAGGGACUGUGUACA [Omei KL FMN B Exc A v5] .
Response: 554 nM

Request: Now try AGUGGUGUAUCUUUUAAGAGUGAUGUUUUUCGAGGACCGGUACGGCCGCCACUCGAGUGAUGAGAGCGUCGUUGUGGUGAUUAGU [#15 K4 Tryptophan A Exclusion] .
Response: 479 nM

Request: Now try AAACGCUGUGAAUAACACAGCGAAAAUUCGCGAGGACCGGUACGGCCGCCACUCGCUAACUGCGAGUGAUGUUCGAUAAUAAAAU [Mat - Mod of OpenEnded 3 - D11] .
Response: 105 nM

Request: Now try UUUUAAAUGUCUGAUACCAGAGAAAAUUUAUGUAGUGAUGUUAUAUACAAAAUAAAUAAGCUCCCUUGGCAGCAGUAUUAAUUUU [AstrosExc-TheB#7] .
Response: 442 nM

====

Test system: MS2 coat protein
Assay: apparent KD of MS2 coat protein; designed switch direction (-1 OFF switch, 1 ON switch): -1; higher = weaker reporter binding
Conditions: Eterna round: R95; input ligand: FMN 200 uM
Quantity measured: apparent KD of MS2 coat protein (nM)
Write the number in nM without appending the unit.

Some sequences with known apparent KD of MS2 coat protein results, for comparison:
Request: Fill in the blank: the reported apparent KD of MS2 coat protein of AAGAAACAUGAGGAUCACCCAUGUGAGGAUAUGAGGAAGAAAAGAAAAGAAAGAAGACUCAGAAGGCACAAAGG [salish99-ex1_r3_073] (puzzle: Exclusion 1) is ____.
Response: 189

Request: Now try AAGAAACAUGAGGAUCACCCAUGUGAGGAUAUGAUUAAGAAAAGAAAAGAAAGAAGAUUCAGAAGGCACAAAGG [salish99-ex1_r3_054] (puzzle: Exclusion 1) .
Response: 91.4

Request: Now try AAUAACAGAGGAUAUACUAUUUUAUGUAUUUAUUAUUUUAAACAUGAGGAUCACCCAUGUAGAAGGCUGAAUGA [JMF 54] (puzzle: Exclusion 2) .
Response: 20.6

New cases:
Request: Fill in the blank: the reported apparent KD of MS2 coat protein of GAGAAGGUAGGAUAUACGAAUAAAUAGGGUAGUAAUAAUACACAUGAGGAUCACCCAUGUAGAAGGACCAAUAG [Mat - Exclusion 2 - Mod of my Tesla design - D40] (puzzle: Exclusion 2) is ____.
Response: 42.5

Request: Now try CAUACUGAAGUUAGGAUAUUCGGACGAAUACGGAUGGAGAAGGGACAUGAGGAUCACCCAUGUAGAUAGUAAAG [EX-4 Malc #13] (puzzle: Brourd's mod of Exclusion 4) .
Response: 20.1

Request: Now try UUUAAUUUUUUUUUUUUACAAGCUUUUUGCUCGUCUUAUACAUGAGGAUCACCCAUGUGAGUGGAGGAUAAAUUAUC [JMF 34] (puzzle: Sensor v3, turn-off variant 2) .
Response: 19.4

Request: Now try GAAAAGGUAGGAUAUACGAUAAGAAAGGGUAGAUAAUAAACACAUGAGGAUCACCCAUGUAGAAGGACCAAAAG [salish99_ex2_r3_102] (puzzle: Exclusion 2) .
Response: 139

Request: Now try CGUGUCUUUCACGUGAGUGGUGGGUGCAACAGGUGGGAAACAUGAGGAUCACCCAUGUCCUCAUUUGCUCGUCUUAU [Grok-var2-02] (puzzle: Sensor v3, turn-off variant 2) .
Response: 686

Request: Now try CCGAGGAAGCGGUCCUAUGACAUGAGGAUCACCCAUGUACCUCGCUACGAGCUUUUUGCUCGUCUUAUAAUUCUCGG [Mat - Sensor v3 - turn-off var 1 - JL Mod - D28] (puzzle: Sensor v3, turn-off variant 1) .
Response: 24.2

Request: Now try GAUUAUGCGAGCUUUAGGGACAUGAGGAUCACCCAUGUUCGUCUUAUUAGUCUAGGUACACUGACAUACCUAAAUCU [JMF 67] (puzzle: Sensor v3, turn-off variant 1) .
Response: 22.7

====

Test system: MS2 coat protein
Assay: apparent KD of MS2 coat protein; designed switch direction (-1 OFF switch, 1 ON switch): -1; higher = weaker reporter binding
Settings: Eterna round: R95; input ligand: FMN 200 uM
Output Satisfied for apparent KD of MS2 coat protein not less than 50 nM; output Not satisfied otherwise.

Request: Exam item: decide whether the reported apparent KD of MS2 coat protein for AUACCAUGCCGCCUAAUAGCUUUUUGCCCGUCUUAUAAAACAUGAGGAUCACCCAUGUAAAACUCGUGGCGUGACCC [Quarre] (puzzle: Sensor v3, turn-off variant 2) is at least 50 nM.
Response: Satisfied

Request: Now try AGAUGUAGAUACCGGUCCUACAUGAGGAUCACCCAUGUAGCUAGACGUGCGGGCGGCGCUCGUCGGUCUACCAGUAG [salish99_TOv1_r3_099] (puzzle: Sensor v3, turn-off variant 1) .
Response: Not satisfied

Request: Now try UUAUAUAAUGUGAGGAUAUGCUGGUCCAUAGAUCAGCAGAAGGCACAUGAGGAUCACCCAUGUAGUAAAUUUUA [Mat - Exclusion 4 - JL Mod - D12] (puzzle: Brourd's mod of Exclusion 4) .
Response: Not satisfied

Request: Now try GGUUGGCGAGGAUAUACAUGAGGAUCACCCAUGUGAGAGAAGAAAGUGAGGAAGAAAAGUAGAAGGCGCUGACG [salish99_ex3_r3_004] (puzzle: Exclusion 3) .
Response: Satisfied
